# System: AP1
# Assay protocol: siRNA transfection array, AP1 EGFP reporter, HepG2 cells
# Format: cell-based, human
# Condition parameters: AP1 reporter, 48 h culture
# Protocol: Functional reporters for transcriptional factors and fibronectin described in Table 2 were used to synthesize siRNAs for the transcriptional factors including SRE, TRE, E2F, p53, Rb, Actin, NFAT, NFkB, STAT3, RARE, PMA, ISRA, HSE, Myc, AP1, GAS, ERE, GRE and CRE. siRNA for EGFP was used as a control. Each siRNA was evaluated as to whether or not it knocks out a target transcription factor. Scrambled RNAs were used as negative controls, and their ratios were evaluated. […]
Form field: Relative intensity ratio of EGFP fluorescence against Scramble II Duplex, AP1 (one value per entry).
Give a bare numeral; the unit % is implied.

Examples from the recorded data:
Substance: E2F siRNA: siRNA SEQ ID NO: 56 (Dharmacon), targets human E2F-1 M96577 (CUGACCAUCAGUACCUGGC; chemistry not given here)
Val: 107.6
//
Substance: Rb siRNA: siRNA SEQ ID NO: 69 (Dharmacon), targets human retinoblastoma susceptibility mRNA M15400 (CUCUCACCUCCCAUGUUGC; chemistry not given here)
Val: 108.6

Dear colleague, I am looking for the recorded Relative intensity ratio of EGFP fluorescence against Scramble II Duplex, AP1 of the following substance: c-Fos siRNA: siRNA SEQ ID NO: 53 (Dharmacon), targets human c-fos K00650 (GCGGAGACAGACCAACUAG; chemistry not given here)
89.0
